# Test system: HeLa
# test: Antiproliferative activity against human HeLa cells overexpressing betaIII-tubulin assessed as inhibition of cell growth by SRB assay
# Format: functional, cell-based
Assignment: determine reported pIC50 for the given molecules.
Scale for pIC50: -log10 of concentration given in mol/L; no unit attached.

Field pIC50 (entry Cc1nc(N)c(Cl)c(N(C)c2ccc3c(c2)CCO3)n1 ) reads 6.38

Field pIC50 (entry COc1cccc2cc(N(C)c3nc(C)nc(N)c3Cl)ccc12 ) reads 7.15

Field pIC50 (entry CCCNc1nc(C)nc(N(C)c2ccc3c(OC)cccc3c2)c1Cl ) reads 6.63

Field pIC50 (entry COc1ccc2c(c1)CCCN2c1nc(C)nc(NC(=O)C(C)(C)C)c1Cl ) reads 5.59

Field pIC50 (entry COc1ccc(N(C)c2nc(C)nc(N)c2Cl)cc1 ) reads 6.95

Field pIC50 (entry COc1ccc(N(C)c2nc(C)nc(NC(C)C)c2Cl)cc1 ) reads 6.00

Field pIC50 (entry COc1ccc(N(C)c2nc(C)nc(N)c2C)cc1 ) reads 6.60

Field pIC50 (entry CSc1ccc(N(C)c2nc(C)nc(N)c2Cl)cc1 ) reads 6.79

Field pIC50 (entry CCCNc1nc(C)nc(N(C)c2ccc(OC)cc2)c1Cl ) reads 7.47

Field pIC50 (entry CCNc1nc(C)nc(N(C)c2ccc(OC)cc2)c1Cl ) reads 7.21

Field pIC50 (entry CNc1nc(C)nc(N(C)c2ccc(OC)cc2)c1Cl ) reads 6.97

Field pIC50 (entry CCCCNc1nc(C)nc(N(C)c2ccc(OC)cc2)c1Cl ) reads 6.98

Field pIC50 (entry COc1ccc(N(C)c2nc(C)nc(NCC(C)C)c2Cl)cc1 ) reads 6.98

Field pIC50 (entry COc1ccc2c(c1)CCCN2c1nc(C)nc(N)c1Cl ) reads 6.55

###

# Tested on: MDA-MB-435
# test: Antiproliferative activity against human MDA-MB-435 cells assessed as inhibition of cell growth by SRB assay
# Format: functional, cell-based
Decision: IC50 beneath 200 nM gives Fulfilled; IC50 meeting or exceeding 200 nM gives Not fulfilled.

Problem: State whether 200 nM exceeds IC50 recorded for COc1cccc2cc(N(C)c3nc(C)nc(N)c3Cl)ccc12 .
Result: Fulfilled

Problem: State whether 200 nM exceeds IC50 recorded for COc1ccc(N(C)c2nc(C)nc(NCC(C)C)c2Cl)cc1 .
Result: Fulfilled

Problem: State whether 200 nM exceeds IC50 recorded for Cc1nc(N)c(Cl)c(N(C)c2ccc3c(c2)CCO3)n1 .
Result: Not fulfilled

Problem: State whether 200 nM exceeds IC50 recorded for COc1ccc(N(C)c2nc(C)nc(NC(C)=O)c2Cl)cc1 .
Result: Not fulfilled

Problem: State whether 200 nM exceeds IC50 recorded for CCCNc1nc(C)nc(N(C)c2ccc3c(OC)cccc3c2)c1Cl .
Result: Not fulfilled

Problem: State whether 200 nM exceeds IC50 recorded for CSc1ccc(N(C)c2nc(C)nc(N)c2Cl)cc1 .
Result: Fulfilled

Problem: State whether 200 nM exceeds IC50 recorded for CCNc1nc(C)nc(N(C)c2ccc(OC)cc2)c1Cl .
Result: Fulfilled

Problem: State whether 200 nM exceeds IC50 recorded for COc1ccc(N(C)c2nc(C)nc(N)c2Cl)cc1 .
Result: Fulfilled

Problem: State whether 200 nM exceeds IC50 recorded for COc1ccc2c(c1)CCCN2c1nc(C)nc(NC(=O)C(C)(C)C)c1Cl .
Result: Not fulfilled

Problem: State whether 200 nM exceeds IC50 recorded for COc1ccc(N(C)c2nc(C)nc(NC(C)C)c2Cl)cc1 .
Result: Not fulfilled

Problem: State whether 200 nM exceeds IC50 recorded for CCCNc1nc(C)nc(N(C)c2ccc(OC)cc2)c1Cl .
Result: Fulfilled

Problem: State whether 200 nM exceeds IC50 recorded for CCCCNc1nc(C)nc(N(C)c2ccc(OC)cc2)c1Cl .
Result: Fulfilled

Problem: State whether 200 nM exceeds IC50 recorded for COc1ccc2c(c1)CCCN2c1nc(C)nc(N)c1Cl .
Result: Not fulfilled

Problem: State whether 200 nM exceeds IC50 recorded for CNc1nc(C)nc(N(C)c2ccc(OC)cc2)c1Cl .
Result: Fulfilled
